target: furin, P09958; test: furin cleavage Z-score vs untreated control; higher = more cleavage, active = 3.5 or more, inactive = 1 or less, 8 variable residues between constant flanks; settings: 7.5 min;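 also: purified furin at 1:10 enzyme:substrate in 50 mM HEPES pH 7.5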
Sequence (P09958 whole entry): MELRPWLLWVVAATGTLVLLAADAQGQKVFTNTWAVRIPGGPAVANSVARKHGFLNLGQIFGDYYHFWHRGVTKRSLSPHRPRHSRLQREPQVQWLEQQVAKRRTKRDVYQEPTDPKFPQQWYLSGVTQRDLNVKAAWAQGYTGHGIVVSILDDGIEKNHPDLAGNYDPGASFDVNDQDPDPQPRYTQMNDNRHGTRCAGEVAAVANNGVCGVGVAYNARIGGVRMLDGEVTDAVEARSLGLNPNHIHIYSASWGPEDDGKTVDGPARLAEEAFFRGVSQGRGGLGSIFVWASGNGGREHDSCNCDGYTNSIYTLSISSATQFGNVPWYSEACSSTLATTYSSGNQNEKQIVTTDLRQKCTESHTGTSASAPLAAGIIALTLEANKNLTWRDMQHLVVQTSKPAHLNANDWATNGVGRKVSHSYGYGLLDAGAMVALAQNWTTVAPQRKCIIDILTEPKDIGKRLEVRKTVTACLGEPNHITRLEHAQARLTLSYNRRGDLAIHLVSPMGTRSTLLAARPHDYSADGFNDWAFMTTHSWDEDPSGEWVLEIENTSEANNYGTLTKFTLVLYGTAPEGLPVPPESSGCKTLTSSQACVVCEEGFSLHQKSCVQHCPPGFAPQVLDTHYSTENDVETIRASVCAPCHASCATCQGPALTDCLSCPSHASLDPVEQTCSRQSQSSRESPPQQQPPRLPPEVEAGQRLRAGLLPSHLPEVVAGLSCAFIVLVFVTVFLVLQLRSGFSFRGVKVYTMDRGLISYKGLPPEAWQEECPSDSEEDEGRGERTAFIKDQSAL
The other results are listed elsewhere or left out. The true hit rate is not given.
Your reply should match one of these outcome classes. Y = active, N = inactive

Which outcome did this test record for the sequence CAMEECAQHLAGNASASA [HC21] ? N
